All figures here come from PubChem BioAssay (NCI).

Reported values of TGI for individual entries
tested on: M14 melanoma; experiment: NCI tumour cell line growth inhibition, 48 h
Supply the numeric figure in µM, leaving out any unit text.

>>> numeric_readout("O=S1(=O)c2ccccc2N=C(c2ccccc2Cl)CC1c1ccc(F)cc1 (stereo unspecified)")
35.3
>>> numeric_readout("Nc1cc2c3c(cccc3c1)C(=O)N(c1ccc(OCCN3CCCC3)cc1)C2=O")
51.2
>>> numeric_readout("CC(C)(C)[Si](C)(C)OC[C@H](/C=C\\CCCC(=O)O)NC1(c2ccccc2)c2ccccc2-c2ccccc21")
38.8
>>> numeric_readout("CCOc1cc2c(cc1O)C(N)C[C@@H]1[C@@H]2CC[C@]2(C)[C@@H](O)CC[C@@H]12 (stereo partly specified)")
98.4

For the next question, use this molecule.
Sample Cc1ccc(/C=C2/N=C(N/N=C\c3ccccc3)NC2=O)cc1 — what was its TGI?
85.7

###

tested on: HOP-62 NSCLC; experiment: NCI tumour cell line growth inhibition, 48 h
Readout label: TGI

Sample records with TGI:
>>> result("CC(C)(C)Sc1nnc(SC(C)(C)C)c2c(=O)[nH]nc(SC(C)(C)C)c12")
"27 µM"
>>> result("Cc1ccc(S(=NS(=O)(=O)c2ccc(C)cc2)c2ccc(C)cc2)cc1")
"> 100 µM"
>>> result("CN=C(N)N/N=C(\\C)c1ccc2c(c1)Cc1ccccc1-2")
"3.2 µM"
>>> result("CN(C)CN(C)c1nc(N(C)C)nc(N(C)CN(C)C)n1")
"> 100 µM"

Short answer please: TGI, HOP-62 NSCLC, entry Cc1ccc(/C=C2/N=C(N/N=C\c3ccccc3)NC2=O)cc1
> 100 µM

Short answer please: TGI, HOP-62 NSCLC, entry CCOC(=O)C1=C(C)N(Cc2ccccc2)C2(O)C=CC(=O)C3=C(O)c4ccccc4C(=O)C312 (stereo not given)
31.8 µM

Short answer please: TGI, HOP-62 NSCLC, entry O=P(O)(O)CN1CCNCCN(CP(=O)(O)O)CC1
> 100 µM

###

test system: COLO 205 colon; assay: NCI tumour cell line growth inhibition, 48 h
Readout label: GI50

>>> result("CN(C(=O)CNC(=O)/C=C/c1cccc(Cl)c1)C1CCS(=O)(=O)CC1")
"1100 nM"

Sample C/C(=N/O)c1ccc(Nc2cc(-n3ccnc3)c3ccccc3n2)cc1 — what was its GI50?
11800 nM

Sample Cc1ccc(-c2n[nH]c(=O)c3noc(-c4ccc(C)cc4)c23)cc1 — what was its GI50?
752 nM

Sample NC(=O)c1ccc(N(C(N)=O)c2c(F)cccc2F)nc1-c1ccc(F)cc1F — what was its GI50?
> 100000 nM

Sample O=C(Nc1cccc(C(F)(F)F)c1)c1cc2ccccc2cc1O — what was its GI50?
1900 nM

###

system: COLO 205 colon; assay: NCI tumour cell line growth inhibition, 48 h; in the data active = GI50 below about 0.43 µM; inactive = the rest
Where a SMILES comes first, the peptide text is derived from it. The star is where a group is joined. Trt = c1ccc(C(c2ccccc2)(c2ccccc2)*)cc1; Cbz = O=C(OCc1ccccc1)*
Answer with one of the outcomes given here: True = active, False = inactive

>>> class_name("O=C(/C=C/c1cccc2ccccc12)Nc1ncc(Cc2ccccc2)s1")
"False"
>>> class_name("C=CC(C)(O)CC/C=C(\\CO)C(=O)OC1C(C)OC(O[C@](C)(C=C)CC/C=C(\\CO)C(=O)O[C@H]2C[C@@]3(C(=O)OC4OC(CO)C(O)C(O)C4OC4OC(C)C(OC5OC(CO)C(O)C5O)C(OC5OC(CO)C(O)C(O)C5O)C4O)C(CC2(C)C)C2=CCC4[C@@]5(C)CC[C@H](OC6OC(COC7OC(C)C(O)C(O)C7OC7OCC(O)C(O)C7O)C(O)C(O)C6NC(C)=O)C(C)(C)C5CC[C@@]4(C)[C@]2(C)C[C@H]3O)C(O)C1O (some centres undefined)")
"True"
>>> class_name("COC(=O)C(CSC(c1ccccc1)(c1ccccc1)c1ccccc1)NC(=O)C(CC(N)=O)NC(=O)OCc1ccccc1 (stereo not drawn) (Cbz-Asn-Cys(Trt)-OMe; configuration not given here)")
"False"
>>> class_name("O=Cc1ccc(N2CCN(c3ccc(C=O)cc3)CC2)cc1")
"False"
>>> class_name("CC(=O)[C-](C(C)=O)c1ccccc1.CC(=O)[C-](C(C)=O)c1ccccc1.CC(=O)[C-](C(C)=O)c1ccccc1.[Cl-].[Zr+4]")
"False"

Recorded call for Cn1cc(C2=C(c3cn(CCCCC(=N)N)c4ccccc34)C(=O)NC2=O)c2ccccc21 ?
False

Recorded call for O=C1/C(=C\c2ccccc2)C2OCC=C3CN4CCC56c7ccccc7N1C5C2C3CC46 (centres undefined) ?
False

Recorded call for Cc1cc(Nc2nc(-c3ccncc3)nc3ccccc23)n[nH]1 ?
False

Recorded call for CCN(CC)Cc1cc(Nc2c3ccccc3nc3cc(Cl)ccc23)ccc1O ?
False

###

system: ACHN renal; assay: NCI tumour cell line growth inhibition, 48 h
Readout label: TGI

>>> result("O=C(/C=C/c1cccc2ccccc12)Nc1ncc(Cc2ccccc2)s1")
"6.02 µM"
>>> result("N#C/C(=C\\c1ccc2[nH]ccc2c1)C(=O)c1ccc(O)c(O)c1")
"> 100 µM"
>>> result("CN(C)CN(C)c1nc(N(C)C)nc(N(C)CN(C)C)n1")
"> 100 µM"
>>> result("Cn1cc(NC(=O)Nc2cc(C(=O)Nc3cc(C(=O)Nc4cc(S(=O)(=O)O)c5cc(S(=O)(=O)O)cc(S(=O)(=O)O)c5c4)n(C)c3)n(C)c2)cc1C(=O)Nc1cc(C(=O)Nc2cc(S(=O)(=O)O)c3cc(S(=O)(=O)O)cc(S(=O)(=O)O)c3c2)n(C)c1")
"> 100 µM"
>>> result("CCOC(=O)c1c(C)n(Cc2ccccc2)c2c1cc1oc(=O)c(=O)n3cnc2c13")
"39.9 µM"

Sample CCOC(=O)C1=C(C)N(Cc2ccccc2)C2(O)C=CC(=O)C3=C(O)c4ccccc4C(=O)C312 (stereo unspecified) — what was its TGI?
34.6 µM

Sample C=CC(C)(O)CC/C=C(\CO)C(=O)OC1C(C)OC(O[C@](C)(C=C)CC/C=C(\CO)C(=O)O[C@H]2C[C@@]3(C(=O)OC4OC(CO)C(O)C(O)C4OC4OC(C)C(OC5OC(CO)C(O)C5O)C(OC5OC(CO)C(O)C(O)C5O)C4O)C(CC2(C)C)C2=CCC4[C@@]5(C)CC[C@H](OC6OC(COC7OC(C)C(O)C(O)C7OC7OCC(O)C(O)C7O)C(O)C(O)C6NC(C)=O)C(C)(C)C5CC[C@@]4(C)[C@]2(C)C[C@H]3O)C(O)C1O (stereo partly specified) — what was its TGI?
0.209 µM

Sample O=C1/C(=C\c2ccccc2)C2OCC=C3CN4CCC56c7ccccc7N1C5C2C3CC46 (stereo unspecified) — what was its TGI?
> 100 µM

Sample Cc1ccc2c(c1C)C(=O)/C(=C/c1cccc(C)c1C(=O)O)C2 — what was its TGI?
> 100 µM

Sample O=P(O)(O)CN1CCNCCN(CP(=O)(O)O)CC1 — what was its TGI?
> 100 µM

Sample O=c1[nH]nc(-c2ccccc2)n1-n1cnnc1 — what was its TGI?
> 100 µM

Sample O=C(O)c1ccc(N/C(=C(/C(Cl)=C(Cl)Cl)[N+](=O)[O-])n2nnc3ccccc32)cc1 — what was its TGI?
> 100 µM

Sample O=C(/C=C/c1ccco1)c1ccc(Nc2nc(Nc3ccc(F)cc3)nc(Nc3ccc(F)cc3)n2)cc1 — what was its TGI?
> 100 µM

Sample CN(C)CCCNC(=O)c1cn2c(ccc3sc4ccccc4c(=O)c32)n1 — what was its TGI?
25.8 µM

Sample CCOC(=O)Cn1c(=O)c(C)cn(COCCO)c1=O — what was its TGI?
> 100 µM

Sample O=S(=O)(O)SCCNCCCCCC1CCCCC1 — what was its TGI?
30.3 µM

###

test system: LXFL 529 NSCLC; experiment: NCI tumour cell line growth inhibition, 48 h
Readout label: TGI

Sample records with TGI:
>>> result("CCCCCCCCCCCCCCCCCC(=O)NCC(COP(=O)(O)O)OCC (stereo not given)")
"> 100 µM"
>>> result("CCc1cc(Cc2ccc(C)c(NC(=O)C(=O)C3C(=O)NC(=O)NC3=O)c2CC)cc(C)c1NC(=O)C(=O)C1C(=O)NC(=O)NC1=O")
"> 100 µM"

Sample CC(=O)c1c2c(cc3c1CC1(C3)Cc3cc4c(c(C(=O)O)c3C1)CCC4)CCC2 (stereo not given) — what was its TGI?
> 100 µM

Sample CC(=O)Nc1ccc(-c2nnc(SCC(=O)Nc3ccc(Cl)cc3)o2)cc1 — what was its TGI?
22.5 µM

Sample N#C/C(=C\c1ccc2[nH]ccc2c1)C(=O)c1ccc(O)c(O)c1 — what was its TGI?
> 100 µM

Sample COc1cc(C(C#N)NNc2nc(C)cc(=O)[nH]2)cc(OC)c1OC (stereo not given) — what was its TGI?
> 100 µM

Sample O=C1C=Cc2ncccc2C1=O — what was its TGI?
30.2 µM

Sample CCOC(C)OC1CC(n2cc(C)c(=O)[nH]c2=O)OC1CO (stereo not given) — what was its TGI?
> 100 µM

Sample CC(C)N1C(C)[C@@H](c2ccccc2)O[P@]1(=O)CC1=CCCCC1 (stereo not given in full) — what was its TGI?
> 100 µM

Sample COC(=O)C(=O)C(C(=O)C(=O)Nc1cc(Cl)c(Cl)cc1Cl)c1nc2ccc([N+](=O)[O-])cc2[nH]c1=O (stereo not given) — what was its TGI?
> 100 µM
